Species: Rattus norvegicus
Method Notes: DrugMatrix - Regimen: Daily Repeat
Assay type: toxicity, organism-based, Sprague-Dawley
Design: regimen Daily Repeat, gender Male, age 6-8 weeks
Condition Set: in vivo, po, 0 mg/kg, 120 h, tissue Blood, route oral GAVAGE, dose level Control, time 5 day, […]
Observed Property: EOSINOPHIL (%)
Reply with just the number (in %).

{"Compound": "CSc1ccc2c(c1)N(CCC1CCCCN1C)c1ccccc1S2 (centres undefined)", "Observed Property": "EOSINOPHIL", "Observed Measurement": 0.5}

Recorded result, Oc1c(Cl)cc(Cl)cc1Sc1cc(Cl)cc(Cl)c1O , EOSINOPHIL: 0.17

Recorded result, CC(=O)[C@H]1CC[C@H]2[C@@H]3CCC4=CC(=O)CC[C@]4(C)[C@H]3CC[C@]12C , EOSINOPHIL: 0

Recorded result, C=CCN , EOSINOPHIL: 0.5

Recorded result, COCc1c(C(C)C)nc(C(C)C)c(/C=C/[C@@H](O)C[C@@H](O)CC(=O)O)c1-c1ccc(F)cc1 , EOSINOPHIL: 0.33

Recorded result, Cn1cnc([N+](=O)[O-])c1Sc1ncnc2nc[nH]c12 , EOSINOPHIL: 0

====

In this section, each of the compounds is paired with its reported ABSOLUTE EOSINOPHIL.
Species: Rattus norvegicus
Method Notes: DrugMatrix - Regimen: Daily Repeat
Format: toxicity, organism-based, Sprague-Dawley
Set-up: regimen Daily Repeat, gender Male, age 6-8 weeks
Condition Set: in vivo, po, 0 mg/kg, 120 h, tissue Blood, route oral GAVAGE, dose level Control, time 5 day, […]
Reply with just the number (in CELLS/uL).

{"Mol": "c1ccc2[nH]c(-c3cscn3)nc2c1", "Unit Annotation": "CELLS/uL", "ABSOLUTE EOSINOPHIL": 20.67}
{"Mol": "Oc1c(Cl)cc(Cl)cc1Sc1cc(Cl)cc(Cl)c1O", "Unit Annotation": "CELLS/uL", "ABSOLUTE EOSINOPHIL": 14.67}
{"Mol": "CCCCCCCCCc1ccc(O)cc1", "Unit Annotation": "CELLS/uL", "ABSOLUTE EOSINOPHIL": 64.33}
{"Mol": "CC(=O)[C@H]1CC[C@H]2[C@@H]3CCC4=CC(=O)CC[C@]4(C)[C@H]3CC[C@]12C", "Unit Annotation": "CELLS/uL", "ABSOLUTE EOSINOPHIL": 0}

Next:
Recorded result, COCc1c(C(C)C)nc(C(C)C)c(/C=C/[C@@H](O)C[C@@H](O)CC(=O)O)c1-c1ccc(F)cc1 , ABSOLUTE EOSINOPHIL: 64.33

====

Species: Rattus norvegicus
Method Notes: DrugMatrix - Regimen: Daily Repeat
Format: toxicity, organism-based, Sprague-Dawley
Parameters: regimen Daily Repeat, gender Male, age 6-8 weeks
Condition Set: in vivo, ip, 0.5 mg/kg, […], tissue Blood, route intraperitoneal, dose level High, time 28 day, vehicle 100 % SALINE
Observed Property: ABSOLUTE LYMPHOCYTE (cells/µL)
Reply with just the number (in cells/µL).

Recorded result, CISPLATIN , ABSOLUTE LYMPHOCYTE: 8670

====

Organism: Rattus norvegicus
Method Notes: DrugMatrix - Regimen: Daily Repeat
Type: toxicity, organism-based, Sprague-Dawley
Parameters: regimen Daily Repeat, gender Male, age 6-8 weeks
Condition Set: in vivo, po, 0 mg/kg, 120 h, tissue Blood, route oral GAVAGE, dose level Control, time 5 day, vehicle .5 % CMC
Observed Property: MEAN CORPUSCULAR HEMOGLOBIN (pg)
Reply with just the number (in pg).

Consider the following illustrative entries.
{"Molecule": "O=c1cc(-c2ccccc2)oc2c1ccc1ccccc12", "MEAN CORPUSCULAR HEMOGLOBIN [pg]": 20.84}
{"Molecule": "NCC(=O)O", "MEAN CORPUSCULAR HEMOGLOBIN [pg]": 24.25}
{"Molecule": "CN1C(C(=O)Nc2ccccn2)=C(O)c2ccccc2S1(=O)=O", "MEAN CORPUSCULAR HEMOGLOBIN [pg]": 24.65}
{"Molecule": "CC1(C)[C@H]2CC[C@]1(C)C(=O)C2 [(-)-CAMPHOR]", "MEAN CORPUSCULAR HEMOGLOBIN [pg]": 23.22}
{"Molecule": "C[C@]12CCC(=O)C=C1CC[C@@H]1[C@@H]2C(=O)C[C@@]2(C)[C@H]1CC[C@]2(O)C(=O)CO", "MEAN CORPUSCULAR HEMOGLOBIN [pg]": 20.1}
{"Molecule": "COc1c(C)c2c(c(O)c1C/C=C(\\C)CCC(=O)OCCN1CCOCC1)C(=O)OC2 [MYCOPHENOLATE MOFETIL]", "MEAN CORPUSCULAR HEMOGLOBIN [pg]": 25.68}

Recorded result, CC(/C=C1\SC(=S)N(CC(=O)O)C1=O)=C\c1ccccc1 , MEAN CORPUSCULAR HEMOGLOBIN: 25.68

Recorded result, Brc1ccccc1 , MEAN CORPUSCULAR HEMOGLOBIN: 22.9

Recorded result, O=c1[nH]cc(F)c(=O)[nH]1 , MEAN CORPUSCULAR HEMOGLOBIN: 24.47

Recorded result, O=C1CCc2cc(OCCCCc3nnnn3C3CCCCC3)ccc2N1 , MEAN CORPUSCULAR HEMOGLOBIN: 19.82

Recorded result, Cc1c(-c2ccccc2)oc2c(C(=O)OCCN3CCCCC3)cccc2c1=O [FLAVOXATE] , MEAN CORPUSCULAR HEMOGLOBIN: 25.23

Recorded result, CCc1ccc(C(=O)C(C)CN2CCCCC2)cc1 (centres undefined) , MEAN CORPUSCULAR HEMOGLOBIN: 24.12

Recorded result, CCc1cccc2c3c([nH]c12)C(CC)(CC(=O)O)OCC3 (centres undefined) , MEAN CORPUSCULAR HEMOGLOBIN: 20.1

Recorded result, CCC[C@@H]1C[C@@H](C(=O)N[C@@H]([C@H]2O[C@H](SC)[C@H](O)[C@@H](O)[C@H]2O)[C@@H](C)O)N(C)C1 , MEAN CORPUSCULAR HEMOGLOBIN: 25.02

Recorded result, CCOC(=O)OC(C)OC1=C(C(=O)Nc2ccccn2)N(C)S(=O)(=O)c2ccccc21 (centres undefined) , MEAN CORPUSCULAR HEMOGLOBIN: 22.9

====

Organism: Rattus norvegicus
Method Notes: DrugMatrix - Regimen: Daily Repeat
Assay type: toxicity, organism-based, Sprague-Dawley
Parameters: regimen Daily Repeat, gender Male, age 6-8 weeks
Condition Set: in vivo, po, 10 mg/kg, 72 h, tissue Plasma, route oral GAVAGE, dose level Low, time 3 day, vehicle .5 % CMC
Observed Property: ALANINE AMINOTRANSFERASE (u/L)
Reply with just the number (in u/L).

Consider the following illustrative entries.
{"Molecule": "CC(=O)O[C@]1(C(C)=O)CC[C@H]2[C@@H]3C=C(Cl)C4=CC(=O)CC[C@]4(C)[C@H]3CC[C@@]21C [CHLORMADINONE ACETATE]", "ALANINE AMINOTRANSFERASE [u/L]": 52}
{"Molecule": "COc1c(C)c2c(c(O)c1C/C=C(\\C)CCC(=O)OCCN1CCOCC1)C(=O)OC2 [MYCOPHENOLATE MOFETIL]", "ALANINE AMINOTRANSFERASE [u/L]": 58}
{"Molecule": "NS(=O)(=O)c1cc2c(cc1Cl)NCNS2(=O)=O [HYDROCHLOROTHIAZIDE]", "ALANINE AMINOTRANSFERASE [u/L]": 49}

Next:
Recorded result, O=C1CN=C(c2ccccc2)c2cc([N+](=O)[O-])ccc2N1 [NITRAZEPAM] , ALANINE AMINOTRANSFERASE: 48.67

====

Organism: Rattus norvegicus
Method Notes: DrugMatrix - Regimen: Daily Repeat
Type: toxicity, organism-based, Sprague-Dawley
Parameters: regimen Daily Repeat, gender Male, age 6-8 weeks
Condition Set: in vivo, po, 1500 mg/kg, 120 h, tissue Blood, route oral GAVAGE, dose level High, time 5 day, vehicle .5 % CMC
Observed Property: LYMPHOCYTE (%)
Reply with just the number (in %).

Consider the following illustrative entries.
{"Compound": "NS(=O)(=O)c1cc2c(cc1Cl)NCNS2(=O)=O [HYDROCHLOROTHIAZIDE]", "Unit Annotation": "%", "Observed Measurement": 88}
{"Compound": "COC(=O)c1ccc(O)cc1 [METHYLPARABEN]", "Unit Annotation": "%", "Observed Measurement": 92}
{"Compound": "O=C1CCc2cc(OCCCCc3nnnn3C3CCCCC3)ccc2N1 [CILOSTAZOL]", "Unit Annotation": "%", "Observed Measurement": 80.03}

Recorded result, CCOC(=O)[C@H](CCc1ccccc1)N[C@@H](C)C(=O)N1[C@H](C(=O)O)C[C@@H]2CCC[C@@H]21 , LYMPHOCYTE: 92
